# tgt: Thyrotropin receptor (Homo sapiens) (UniProt P16473)
# Sequence (P16473 whole entry, looked up): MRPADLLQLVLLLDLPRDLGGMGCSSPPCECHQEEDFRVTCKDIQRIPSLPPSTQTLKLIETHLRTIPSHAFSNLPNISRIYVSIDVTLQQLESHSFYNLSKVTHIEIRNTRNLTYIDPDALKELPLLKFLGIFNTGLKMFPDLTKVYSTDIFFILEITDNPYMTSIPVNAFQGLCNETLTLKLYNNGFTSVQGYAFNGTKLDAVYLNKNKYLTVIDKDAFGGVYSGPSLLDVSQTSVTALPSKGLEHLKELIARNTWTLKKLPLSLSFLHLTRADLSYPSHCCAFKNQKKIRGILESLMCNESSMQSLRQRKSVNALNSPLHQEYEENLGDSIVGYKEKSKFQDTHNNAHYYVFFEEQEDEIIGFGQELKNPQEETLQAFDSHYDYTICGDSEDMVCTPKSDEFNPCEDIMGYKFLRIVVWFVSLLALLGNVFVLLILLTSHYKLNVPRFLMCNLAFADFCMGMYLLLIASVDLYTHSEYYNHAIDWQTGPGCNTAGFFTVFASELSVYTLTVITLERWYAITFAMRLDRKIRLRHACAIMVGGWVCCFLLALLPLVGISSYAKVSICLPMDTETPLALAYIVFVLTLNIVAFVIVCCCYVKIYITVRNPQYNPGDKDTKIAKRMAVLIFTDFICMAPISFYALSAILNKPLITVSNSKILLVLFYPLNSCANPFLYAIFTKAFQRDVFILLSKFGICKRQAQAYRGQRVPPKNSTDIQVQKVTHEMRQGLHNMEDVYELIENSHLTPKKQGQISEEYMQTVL
# procedure-details: qHTS assay to identify small molecule agonists of the thyroid stimulating hormone receptor (TSHR) signaling pathway (AID 1224843); further: nearly all actives have a fitted effect of over 45% in size
# cond: TSHR-HEK293 cells, cAMP HTRF, agonist mode, 30 min; series mostly up to 92.4 µM
# Description: National Center for Advancing Translational Sciences [NCATS] NIH Chemical Genomics Center [NCGC] U.S. Environmental Protection Agency [EPA] National Institutes of Environmental Health Sciences [NIEHS] National Toxicology Program [NTP] […] TSHR-Hek293 cells were dispensed at 800 cells/4uL/well in 1536-well white plates using a Multidrop dispenser. […] After 1 hr incubation at room temperature, the fluorescence intensity in the plates was measured using an Envision plate reader. […]
Inconclusive results are not listed. Activity calls are given as the source filed them. The call rests on the fitted dose curve.
Labels: t = active, f = inactive

{"compound": "Cc1ccc2oc(CN(Cc3ccccc3)C(=O)Nc3c(F)cc(F)cc3F)c(-c3ccc(Cl)cc3)c2c1", "tgt": "Thyrotropin receptor (Homo sapiens) (UniProt P16473)", "discrete-label": "f"}
{"compound": "Cc1[nH]nc2c1N=C(c1ccccc1Cl)c1cc([N+](=O)[O-])ccc1N2", "tgt": "Thyrotropin receptor (Homo sapiens) (UniProt P16473)", "discrete-label": "f"}
{"compound": "Cc1oc(-c2ccccc2)nc1CCC(=O)c1ccc(CC2SC(=O)NC2=O)cc1 (stereo not drawn)", "tgt": "Thyrotropin receptor (Homo sapiens) (UniProt P16473)", "discrete-label": "f"}
{"compound": "Cc1cc(O)c2ccccc2c1O", "tgt": "Thyrotropin receptor (Homo sapiens) (UniProt P16473)", "discrete-label": "f"}
{"compound": "Nc1ccccc1O", "tgt": "Thyrotropin receptor (Homo sapiens) (UniProt P16473)", "discrete-label": "f"}
{"compound": "Clc1ccc2n[nH]nc2c1", "tgt": "Thyrotropin receptor (Homo sapiens) (UniProt P16473)", "discrete-label": "f"}
{"compound": "O=c1[nH]sc2cc(Cl)ccc12", "tgt": "Thyrotropin receptor (Homo sapiens) (UniProt P16473)", "discrete-label": "f"}
{"compound": "NC(=NCCCCCCN=C(N)/N=C(\\N)Nc1ccc(Cl)cc1)/N=C(\\N)Nc1ccc(Cl)cc1", "tgt": "Thyrotropin receptor (Homo sapiens) (UniProt P16473)", "discrete-label": "f"}
{"compound": "CCCCCCC[N+](CC)(CC)CCCCc1ccc(Cl)cc1", "tgt": "Thyrotropin receptor (Homo sapiens) (UniProt P16473)", "discrete-label": "f"}
{"compound": "Cc1onc(-c2c(Cl)cccc2Cl)c1C(=O)N[C@@H]1C(=O)N2[C@@H]1SC(C)(C)[C@@H]2C(=O)O", "tgt": "Thyrotropin receptor (Homo sapiens) (UniProt P16473)", "discrete-label": "f"}
{"compound": "CC(C)(C)CC(C)(C)c1ccc(O)c(Cc2ccc(Cl)cc2Cl)c1", "tgt": "Thyrotropin receptor (Homo sapiens) (UniProt P16473)", "discrete-label": "f"}
{"compound": "NC(=O)N1C(=O)C(C(=O)c2cc(Cl)cs2)c2cc(F)c(Cl)cc21 (stereo not drawn)", "tgt": "Thyrotropin receptor (Homo sapiens) (UniProt P16473)", "discrete-label": "f"}
{"compound": "CN(C/C=C/C#CC(C)(C)C)Cc1cccc2ccccc12", "tgt": "Thyrotropin receptor (Homo sapiens) (UniProt P16473)", "discrete-label": "f"}
{"compound": "CC[C@H]1O[C@]2(CC[C@@H]1C)C[C@@H]1C[C@@H](C/C=C(\\C)C[C@@H](C)/C=C/C=C3\\CO[C@@H]4[C@H](O)C(C)=C[C@@H](C(=O)O1)[C@]34O)O2", "tgt": "Thyrotropin receptor (Homo sapiens) (UniProt P16473)", "discrete-label": "f"}
{"compound": "C=C(C)C(=O)OCC[N+](C)(C)C", "tgt": "Thyrotropin receptor (Homo sapiens) (UniProt P16473)", "discrete-label": "f"}
{"compound": "Cc1cccc(N(C)C(=S)Oc2ccc3c(c2)C2CCC3C2)c1 (stereo not drawn)", "tgt": "Thyrotropin receptor (Homo sapiens) (UniProt P16473)", "discrete-label": "f"}
{"compound": "CCCCCCCCCCCCc1ccc(O)cc1", "tgt": "Thyrotropin receptor (Homo sapiens) (UniProt P16473)", "discrete-label": "t"}
{"compound": "CCCCCOC(=O)CCCC", "tgt": "Thyrotropin receptor (Homo sapiens) (UniProt P16473)", "discrete-label": "f"}
{"compound": "CCCCN1CCCC[C@H]1C(=O)Nc1c(C)cccc1C", "tgt": "Thyrotropin receptor (Homo sapiens) (UniProt P16473)", "discrete-label": "f"}
{"compound": "Oc1cccc2cc3cccc(O)c3c(O)c12", "tgt": "Thyrotropin receptor (Homo sapiens) (UniProt P16473)", "discrete-label": "f"}
{"compound": "CC1=NC(C)OC1C (stereo not drawn)", "tgt": "Thyrotropin receptor (Homo sapiens) (UniProt P16473)", "discrete-label": "f"}
{"compound": "CC[C@@]1(O)C(=O)OCc2c1cc1n(c2=O)Cc2c-1nc1ccccc1c2/C=N/OC(C)(C)C", "tgt": "Thyrotropin receptor (Homo sapiens) (UniProt P16473)", "discrete-label": "f"}
{"compound": "O=C(N/N=C/c1ccccc1O)c1ccncc1", "tgt": "Thyrotropin receptor (Homo sapiens) (UniProt P16473)", "discrete-label": "f"}
{"compound": "CC1=C(/C=C/C(C)=C/C=C/C(C)=C/C=O)C(C)(C)CCC1", "tgt": "Thyrotropin receptor (Homo sapiens) (UniProt P16473)", "discrete-label": "t"}
{"compound": "C[C@@H]1C[C@H]2[C@@H]3CCC4=CC(=O)C=C[C@]4(C)[C@@]3(Cl)[C@@H](O)C[C@]2(C)[C@@]1(OC(=O)c1ccco1)C(=O)CCl", "tgt": "Thyrotropin receptor (Homo sapiens) (UniProt P16473)", "discrete-label": "f"}
{"compound": "Oc1ccc(N=Nc2ccccc2)cc1", "tgt": "Thyrotropin receptor (Homo sapiens) (UniProt P16473)", "discrete-label": "t"}
{"compound": "C[C@]12CCC(=O)C=C1CC[C@@H]1[C@@H]2[C@@H](O)C[C@@]2(C)[C@H]1CC[C@]2(O)C(=O)COC(=O)CCC(=O)O", "tgt": "Thyrotropin receptor (Homo sapiens) (UniProt P16473)", "discrete-label": "f"}
{"compound": "C[C@H]1[C@H]2CC[C@H]3[C@@H]4CC=C5C[C@@H](N(C)C)CC[C@]5(C)[C@H]4CC[C@]23CN1C", "tgt": "Thyrotropin receptor (Homo sapiens) (UniProt P16473)", "discrete-label": "f"}
{"compound": "CCC(C)(C)C1CCCCC1OC(C)=O (stereo not drawn)", "tgt": "Thyrotropin receptor (Homo sapiens) (UniProt P16473)", "discrete-label": "f"}
{"compound": "Cc1ccc(O)c2ncccc12", "tgt": "Thyrotropin receptor (Homo sapiens) (UniProt P16473)", "discrete-label": "f"}
{"compound": "CCCN(CCC)c1c([N+](=O)[O-])cc(C(F)(F)F)c(N)c1[N+](=O)[O-]", "tgt": "Thyrotropin receptor (Homo sapiens) (UniProt P16473)", "discrete-label": "t"}
{"compound": "CNCc1cc(F)ccc1Oc1ccc(Cl)c(Cl)c1", "tgt": "Thyrotropin receptor (Homo sapiens) (UniProt P16473)", "discrete-label": "t"}
{"compound": "CCCCc1oc2ccc(NS(C)(=O)=O)cc2c1C(=O)c1ccc(OCCCN(CCCC)CCCC)cc1", "tgt": "Thyrotropin receptor (Homo sapiens) (UniProt P16473)", "discrete-label": "f"}
{"compound": "Cc1ccc(O)c(C(C)(C)C)c1", "tgt": "Thyrotropin receptor (Homo sapiens) (UniProt P16473)", "discrete-label": "f"}
{"compound": "CCCCCCCCCCCCCC[P+](CCCC)(CCCC)CCCC (tested in a mixture with another compound)", "tgt": "Thyrotropin receptor (Homo sapiens) (UniProt P16473)", "discrete-label": "f"}
{"compound": "Clc1ccc(C(Cn2ccnc2)OCc2ccc(Sc3ccccc3)cc2)c(Cl)c1 (stereo not drawn)", "tgt": "Thyrotropin receptor (Homo sapiens) (UniProt P16473)", "discrete-label": "f"}
{"compound": "CCCCN1C(=O)[C@@H]([C@H](O)C2CCCCC2)NC(=O)C12CCN(Cc1ccc(Oc3ccc(C(=O)O)cc3)cc1)CC2", "tgt": "Thyrotropin receptor (Homo sapiens) (UniProt P16473)", "discrete-label": "f"}
{"compound": "C=CC(=O)OCC(CO)(COCC(COC(=O)C=C)(COC(=O)C=C)COC(=O)C=C)COC(=O)C=C", "tgt": "Thyrotropin receptor (Homo sapiens) (UniProt P16473)", "discrete-label": "t"}
{"compound": "O=C(O)c1c(Cl)cccc1Cl", "tgt": "Thyrotropin receptor (Homo sapiens) (UniProt P16473)", "discrete-label": "f"}
{"compound": "COc1cccc2c1C(=O)c1c(O)c3c(c(O)c1C2=O)C[C@@](O)(C(=O)CO)C[C@@H]3O[C@H]1C[C@H](N)[C@H](O[C@@H]2CCCCO2)[C@H](C)O1", "tgt": "Thyrotropin receptor (Homo sapiens) (UniProt P16473)", "discrete-label": "f"}
{"compound": "CCCCCOc1ccccc1/C(=C\\SC)n1ccnc1", "tgt": "Thyrotropin receptor (Homo sapiens) (UniProt P16473)", "discrete-label": "t"}
{"compound": "NNc1nc(-c2ccccc2)cs1", "tgt": "Thyrotropin receptor (Homo sapiens) (UniProt P16473)", "discrete-label": "f"}
{"compound": "N=C1N=C(N)c2cc3ccccc3cc21", "tgt": "Thyrotropin receptor (Homo sapiens) (UniProt P16473)", "discrete-label": "t"}
